TESTED ON: KRAS G12S (Homo sapiens (Human), UniProt P01116+P62937, G12S)
Sequence (P01116-2 other isoform, or with tags, fused parts or gaps G12S): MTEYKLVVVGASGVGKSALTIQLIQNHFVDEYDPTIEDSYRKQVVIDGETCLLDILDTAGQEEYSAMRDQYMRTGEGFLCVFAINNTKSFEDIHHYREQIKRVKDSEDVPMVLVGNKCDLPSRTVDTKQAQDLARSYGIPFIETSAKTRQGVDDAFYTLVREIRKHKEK
Sequence (P62937 whole entry): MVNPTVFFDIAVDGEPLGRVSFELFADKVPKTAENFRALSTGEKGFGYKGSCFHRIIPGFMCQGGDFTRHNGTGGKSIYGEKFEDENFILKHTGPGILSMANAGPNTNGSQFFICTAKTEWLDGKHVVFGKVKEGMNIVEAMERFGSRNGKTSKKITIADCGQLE
ASSAY METHOD TEXT: Ras-Raf (BRAF RBD) disruption / FRET / MOA assay, KRAS G12S
Type: biochemical
CONDITION NOTES: Ras-Raf disruption/FRET/MOA assay; class symbols; read-out: KRAS G12S FRET data IC50
Measured IC50 by item
PROPERTY MEASURED: IC50

[[record]]
compound = "C=CC(=O)N1CC(N2CCN(C(=O)N(C)[C@H](C(=O)N[C@H]3Cc4nc(cs4)-c4ccc5c(c4)c(c(-c4cccnc4[C@H](C)OC)n5CC)CC(C)(C)COC(=O)[C@@H]4CCCN(N4)C3=O)C(C)C)CC2)C1 (atropisomer, axis not shown)"
tested_on = "KRAS G12S (Homo sapiens (Human), UniProt P01116+P62937, G12S)"
recorded_value = "100 to 1000 nM"

[[record]]
compound = "C=CC(=O)Nc1cnc(OC[C@H](C(=O)N[C@H]2Cc3cccc(c3)-c3ccc4c(c3)c(c(-c3cccnc3[C@H](C)OC)n4CC)CC(C)(C)COC(=O)[C@@H]3CCCN(N3)C2=O)C(C)C)n1C (atropisomer, axis not shown)"
tested_on = "KRAS G12S (Homo sapiens (Human), UniProt P01116+P62937, G12S)"
recorded_value = "1000 to 10000 nM"


###

TESTED ON: NRAS G12C (Homo sapiens (Human), UniProt P01111+P62937, G12C)
Sequence (P01111 whole entry G12C): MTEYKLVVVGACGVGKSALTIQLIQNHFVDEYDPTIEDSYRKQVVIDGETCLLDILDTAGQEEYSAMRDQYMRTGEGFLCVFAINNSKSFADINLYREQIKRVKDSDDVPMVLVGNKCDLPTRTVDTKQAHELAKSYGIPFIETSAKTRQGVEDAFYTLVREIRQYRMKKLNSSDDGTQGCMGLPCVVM
Sequence (P62937 whole entry): as the sequence (P62937 whole entry) above
ASSAY METHOD TEXT: Ras-Raf (BRAF RBD) disruption / FRET / MOA assay, NRAS G12C
Format: biochemical
CONDITION NOTES: read-out: IC50* NRAS G12C FRET data
Procedure: The purpose of this biochemical assay is to measure the ability of test compounds to facilitate ternary complex formation between a nucleotide-loaded Ras isoform and cyclophilin A; the resulting ternary complex disrupts binding to a BRAF^RBD construct, inhibiting Ras signaling through a RAF effector. Compound is present in plate wells as a 10-point 3-fold dilution series starting at a final concentration of 30 μM. […]
pIC50: −log10 of the molar value.
PROPERTY MEASURED: pIC50

[[record]]
compound = "C=CC(=O)N1CC[C@H](C(=O)N(C)[C@H](C(=O)N[C@H]2Cc3cc(O)cc(c3)-c3ccc4c(c3)c(c(-c3cn(C)nc3[C@H](C)OC)n4CC)CC(C)(C)COC(=O)[C@@H]3CCCN(N3)C2=O)C(C)C)C1"
recorded_value = "7.00 to 8.00"

[[record]]
compound = "C=CC(=O)N1CC[C@H](C(=O)N(C)[C@H](C(=O)N[C@H]2Cc3cccc(c3)-c3ccc4c(c3)c(c(-c3cc(C5CCN(C)CC5)cnc3[C@H](C)OC)n4CC)CC(C)(C)COC(=O)[C@@H]3CCCN(N3)C2=O)C(C)C)C1 (atropisomer, axis not shown) [Example A515]"
recorded_value = "7.00 to 8.00"

[[record]]
compound = "CO[C@@H](C)c1ncccc1-c1c2c3cc(ccc3n1CC(F)(F)F)-c1nc(nn1C)C[C@H](NC(=O)[C@H](C(C)C)N(C)C(=O)C1(F)CCN(C(=O)C#CC(C)(C)N(C)C)CC1)C(=O)N1CCC[C@H](N1)C(=O)OCC(C)(C)C2 (atropisomer, axis not shown)"
recorded_value = "> 8.00"

[[record]]
compound = "C=CC(=O)NCCN(C)C(=O)N(C)[C@H](C(=O)N[C@H]1Cc2nc(cs2)-c2ccc3c(c2)c(c(-c2cccnc2[C@H](C)OC)n3CC)CC(C)(C)COC(=O)[C@@H]2CCCN(N2)C1=O)C(C)C (atropisomer, axis not shown)"
recorded_value = "7.00 to 8.00"

[[record]]
compound = "CCn1c(-c2cccnc2[C@H](C)OC)c2c3cc(ccc31)-c1nc(cs1)C[C@H](NC(=O)[C@H](C1CCCC1)N(C)C(=O)[C@H]1CCN(C(=O)C#CC(C)(C)N3CCC3)C1)C(=O)N1CCC[C@H](N1)C(=O)OCC(C)(C)C2 (atropisomer, axis not shown)"
recorded_value = "7.00 to 8.00"

[[record]]
compound = "C=CC(=O)N1CCOC2(CCN(C(=O)N(C)[C@H](C(=O)N[C@H]3Cc4cccc(c4)-c4ccc5c(c4)c(c(-c4cccnc4[C@H](C)OC)n5CC(F)(F)F)CC(C)(C)COC(=O)[C@@H]4CCCN(N4)C3=O)C(C)C)CC2)C1 (atropisomer, axis not shown)"
recorded_value = "6.00 to 7.00"

[[record]]
compound = "C/C=C(\\C#N)C(=O)N1CC[C@H](C(=O)N(C)[C@H](C(=O)N[C@H]2Cc3cc(O)cc(c3)-c3ccc4c(c3)c(c(-c3cccnc3COC)n4CC)CC(C)(C)COC(=O)[C@@H]3CCCN(N3)C2=O)C(C)C)C1"
recorded_value = "7.00 to 8.00"

[[record]]
compound = "CO[C@@H](C)c1ncccc1-c1c2c3cc(ccc3n1CC(F)(F)F)-c1cccc(c1)C[C@H](NC(=O)[C@@H](COC1CN(C(=O)C#CC3(C)OCCO3)C1)C(C)C)C(=O)N1CCC[C@H](N1)C(=O)OCC(C)(C)C2 (atropisomer, axis not shown)"
recorded_value = "7.00 to 8.00"


###

Measured pIC50 by item
TESTED ON: KRAS G12V (Homo sapiens (Human), UniProt P01116+P62937, G12V)
Sequence (P01116-2 other isoform, or with tags, fused parts or gaps G12V, one chain of several): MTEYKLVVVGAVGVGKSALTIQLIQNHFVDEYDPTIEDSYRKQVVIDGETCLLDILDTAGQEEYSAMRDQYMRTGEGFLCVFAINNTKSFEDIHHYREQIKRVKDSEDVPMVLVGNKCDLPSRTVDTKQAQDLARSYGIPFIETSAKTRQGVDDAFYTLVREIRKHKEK
ASSAY METHOD TEXT: Ras-Raf (BRAF RBD) disruption / FRET / MOA assay, KRAS G12V
Type: biochemical
CONDITION NOTES: read-out: IC50* KRAS G12V FRET data
pIC50: −log10 of the molar value.
PROPERTY MEASURED: pIC50

[[record]]
compound = "C=CC(=O)N1CCN(C(=O)N(C)[C@H](C(=O)N[C@H]2Cc3nc(cs3)-c3ccc4c(c3)c(c(-c3cccnc3[C@H](C)OC)n4CC)CC(C)(C)COC(=O)[C@@H]3CCCN(N3)C2=O)C(C)C)C[C@@H]1C (atropisomer, axis not shown)"
tested_on = "KRAS G12V (Homo sapiens (Human), UniProt P01116+P62937, G12V)"
recorded_value = "6.00 to 7.00"

[[record]]
compound = "C/C=C/S(=O)(=O)N1CC[C@H](C(=O)N(C)[C@H](C(=O)N[C@H]2Cc3cc(O)cc(c3)-c3ccc4c(c3)c(c(-c3cccnc3[C@H](C)OC)n4CC)CC(C)(C)COC(=O)[C@@H]3CCCN(N3)C2=O)C(C)C)C1 (atropisomer, axis not shown)"
tested_on = "KRAS G12V (Homo sapiens (Human), UniProt P01116+P62937, G12V)"
recorded_value = "6.00 to 7.00"

[[record]]
compound = "CCn1c(-c2cccnc2[C@H](C)OC)c2c3cc(ccc31)-c1nc(nn1C)C[C@H](NC(=O)[C@@H](COC1CN(C(=O)C#CC(C)(C)N(C)C)C1)C(C)C)C(=O)N1CCC[C@H](N1)C(=O)OCC(C)(C)C2 (atropisomer, axis not shown)"
tested_on = "KRAS G12V (Homo sapiens (Human), UniProt P01116+P62937, G12V)"
recorded_value = "5.00 to 6.00"

[[record]]
compound = "C=CC(=O)N1CCCN(C(=O)N(C)[C@H](C(=O)N[C@H]2Cc3nc(cs3)-c3ccc4c(c3)c(c(-c3cccnc3[C@H](C)OC)n4CC)CC(C)(C)COC(=O)[C@@H]3CCCN(N3)C2=O)C(C)C)CC1 (atropisomer, axis not shown)"
tested_on = "KRAS G12V (Homo sapiens (Human), UniProt P01116+P62937, G12V)"
recorded_value = "6.00 to 7.00"


###

TESTED ON: KRAS G12S (Homo sapiens (Human), UniProt P01116+P62937, G12S)
ASSAY METHOD TEXT: Ras-Raf (BRAF RBD) disruption / FRET / MOA assay, KRAS G12S
Format: biochemical
CONDITION NOTES: Ras-Raf disruption/FRET/MOA assay; class symbols; read-out: KRAS G12S FRET data IC50
pIC50: −log10 of the molar value.
PROPERTY MEASURED: pIC50

[[record]]
molecule = "CCn1c(-c2cccnc2[C@H](C)OC)c2c3cc(ccc31)-c1cc(O)cc(c1)C[C@H](NC(=O)[C@H](C(C)C)N(C)C(=O)c1nc(NC(=O)/C=C/CN(C)C)cs1)C(=O)N1CCC[C@H](N1)C(=O)OCC(C)(C)C2"
recorded_value = "5.00 to 6.00"

[[record]]
molecule = "C=CC(=O)N1CC[C@H](C(=O)N(C)[C@H](C(=O)N[C@H]2Cc3cc(O)cc(c3)-c3ccc4c(c3)c(c(-c3ccc(N5CCN(C)CC5)nc3)n4CC)CC(C)(C)COC(=O)[C@@H]3CCCN(N3)C2=O)C(C)C)C1"
recorded_value = "5.00 to 6.00"

[[record]]
molecule = "C=CC(=O)N1CC[C@H](C(=O)N(C)[C@@H](C(=O)N[C@H]2Cc3cc(O)cc(c3)-c3ccc4c(c3)c(c(-c3cccc(CN(C)C)c3)n4CC)CC(C)(C)COC(=O)[C@@H]3CCCN(N3)C2=O)C(C)C)C1"
recorded_value = "< 5.00"

[[record]]
molecule = "C=CC(=O)N1CC[C@H](C(=O)N(C)[C@H](C(=O)N[C@H]2Cc3cc(O)cc(c3)-c3ccc4c(c3)c(c(-c3ncccc3COC)n4CC)CC(C)(C)COC(=O)[C@@H]3CCCN(N3)C2=O)C(C)C)C1"
recorded_value = "< 5.00"

[[record]]
molecule = "C=CC(=O)N1CC[C@@]2(C1)OCN([C@H](C(=O)N[C@H]1Cc3cccc(c3)-c3ccc4c(c3)c(c(-c3cccnc3[C@H](C)OC)n4CC)CC(C)(C)COC(=O)[C@@H]3CCCN(N3)C1=O)C(C)C)C2=O (atropisomer, axis not shown)"
recorded_value = "5.00 to 6.00"

[[record]]
molecule = "CCn1c(-c2cccnc2[C@H](C)OC)c2c3cc(ccc31)-c1csc(n1)C[C@H](NC(=O)[C@H](F)COC1CN(C(=O)C#CC(C)(C)N(C)C)C1)C(=O)N1CCC[C@H](N1)C(=O)OCC(C)(C)C2 (atropisomer, axis not shown)"
recorded_value = "< 5.00"

[[record]]
molecule = "C=CC(=O)N1CC[C@H](C(=O)N(C)[C@H](C(=O)NN2Cc3cc(O)cc(c3)-c3ccc4c(c3)c(c(-c3cccnc3[C@H](C)OC)n4CC)CC(C)(C)COC(=O)[C@@H]3CCCN(N3)C2=O)C(C)C)C1 (atropisomer, axis not shown)"
recorded_value = "7.00 to 8.00"

[[record]]
molecule = "CCn1c(-c2cccnc2[C@H](C)OC)c2c3cc(ccc31)N1CCO[C@@H](C[C@H](NC(=O)[C@@H](COC3CCN(C(=O)C#CC(C)(C)N(C)C)CC3)C(C)C)C(=O)N3CCC[C@H](N3)C(=O)OCC(C)(C)C2)C1 (atropisomer, axis not shown)"
recorded_value = "< 5.00"

[[record]]
molecule = "CCn1c(-c2cccnc2[C@H](C)OC)c2c3cc(ccc31)-c1csc(n1)C[C@H](NC(=O)[C@H](C(C)C)N(C)C(=O)N1CCN(C(=O)C#CC(C)(C)N(C)C)CC1)C(=O)N1CCC[C@H](N1)C(=O)OCC(C)(C)C2 (atropisomer, axis not shown)"
recorded_value = "7.00 to 8.00"

[[record]]
molecule = "C=CC(=O)N(C)[C@@H]1CCN(C(=O)N(C)[C@H](C(=O)N[C@H]2Cc3nc(cs3)-c3ccc4c(c3)c(c(-c3cccnc3[C@H](C)OC)n4CC)CC(C)(C)COC(=O)[C@@H]3CCCN(N3)C2=O)C(C)C)C1 (atropisomer, axis not shown)"
recorded_value = "6.00 to 7.00"

[[record]]
molecule = "C=CC(=O)N1CC[C@H]2[C@@H]1CN2C(=O)N(C)[C@H](C(=O)N[C@H]1Cc2nc(cs2)-c2ccc3c(c2)c(c(-c2cccnc2[C@H](C)OC)n3CC)CC(C)(C)COC(=O)[C@@H]2CCCN(N2)C1=O)C(C)C (atropisomer, axis not shown)"
recorded_value = "5.00 to 6.00"

[[record]]
molecule = "C=CC(=O)N1CC[C@H](C(=O)N2CCCCC[C@H]2C(=O)N[C@H]2Cc3cccc(c3)-c3ccc4c(c3)c(c(-c3cccnc3[C@H](C)OC)n4CC)CC(C)(C)COC(=O)[C@@H]3CCCN(N3)C2=O)C1 (atropisomer, axis not shown)"
recorded_value = "< 5.00"

[[record]]
molecule = "C=CC(=O)N(C)CC(=O)N(C)[C@H](C(=O)N[C@H]1Cc2cc(O)cc(c2)-c2ccc3c(c2)c(c(-c2cccnc2COC)n3CC)CC(C)(C)COC(=O)[C@@H]2CCCN(N2)C1=O)C(C)C"
recorded_value = "6.00 to 7.00"

[[record]]
molecule = "C=CC(=O)N1CC[C@H](C(=O)N(C)[C@H](C(=O)N[C@H]2Cc3cc(O)cc(c3)-c3ccc4c(c3)c(c(-c3ccc(C5CCN(C)CC5)nc3)n4CC)CC(C)(C)COC(=O)[C@@H]3CCCN(N3)C2=O)C(C)C)C1"
recorded_value = "5.00 to 6.00"

[[record]]
molecule = "C/C=C(\\C)S(=O)(=O)N1CC[C@H](C(=O)N(C)[C@H](C(=O)N[C@H]2Cc3cc(O)cc(c3)-c3ccc4c(c3)c(c(-c3cccnc3[C@H](C)OC)n4CC)CC(C)(C)COC(=O)[C@@H]3CCCN(N3)C2=O)C(C)C)C1 (atropisomer, axis not shown)"
recorded_value = "6.00 to 7.00"

[[record]]
molecule = "C=CC(=O)N1CC[C@H](C(=O)N(C)[C@H](C(=O)N[C@H]2Cc3cccc(c3)-c3ccc4c(c3)c(c(-c3cnn(C5CCN(C)CC5)c3[C@H](C)OC)n4CC)CC(C)(C)COC(=O)[C@@H]3CCCN(N3)C2=O)C(C)C)C1"
recorded_value = "< 5.00"

